Origin of measurements: patent US20140294898A1

target: T1, hPDL1(19-239)-TVMV-His (human, UniProt Q9NZQ7 19-239); assay: HTRF competition, PD-1-Ig binding to PD-L1-His
T1 construct: The text says amino acids 18-239, the construct name says 19-239; Expressed in HEK293T cells; Used at 10 nM final in the HTRF assay; also called PD-L1-His; PD-L1-TVMV-His
T1 sequence (Q9NZQ7 other isoform, or with tags, fused parts or gaps limits assumed): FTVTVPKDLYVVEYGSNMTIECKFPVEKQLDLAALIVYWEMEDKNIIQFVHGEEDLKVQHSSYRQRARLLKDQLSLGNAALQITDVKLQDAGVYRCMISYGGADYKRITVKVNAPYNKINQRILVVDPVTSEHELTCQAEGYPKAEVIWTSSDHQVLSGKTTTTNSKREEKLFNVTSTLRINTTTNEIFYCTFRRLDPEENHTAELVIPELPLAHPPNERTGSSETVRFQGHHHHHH
Positions of bridges follow the written chain, without caps; N, C: chain ends. Non-standard residues stand in square brackets, D forms with d. Phe(4-CF3) = N[C@@H](Cc1ccc(C(F)(F)F)cc1)C(=O)O; NMeNle = CCCC[C@H](NC)C(=O)O; Pro(4-NH2) = 4-aminoproline; NMeA = CN[C@@H](C)C(=O)O; dNMeA = CN[C@H](C)C(=O)O; Sar = CNCC(=O)O
# IC50 values compiled below
# unit: nM | format: bare number

- binder: "{CH2CO}-F[NMeA]N[Pro(4-NH2)]HL[Sar]WSW[NMeNle][NMeNle]RCG-NH2 (thioether N-14) [Compound No. 48]"
  quantity unit: "nM"
  IC50: 40

Problem: I'd like to know its IC50. The binder in question is {CH2CO}-F[NMeA]NPHL[dNMeA]WSW[NMeNle][NMeNle]RCG-NH2 (thioether N-14; SMILES CCCC[C@H]1C(=O)N(C)[C@@H](CCCC)C(=O)N[C@@H](CCCNC(=N)N)C(=O)N[C@H](C(=O)NCC(N)=O)CSCC(=O)N[C@@H](Cc2ccccc2)C(=O)N(C)[C@@H](C)C(=O)N[C@@H](CC(N)=O)C(=O)N2CCC[C@H]2C(=O)N[C@@H](Cc2c[nH]cn2)C(=O)N[C@@H](CC(C)C)C(=O)N(C)[C@H](C)C(=O)N[C@@H](Cc2c[nH]c3ccccc23)C(=O)N[C@@H](CO)C(=O)N[C@@H](Cc2c[nH]c3ccccc23)C(=O)N1C) [Compound No. 14]
Solution: 59

Problem: Param item: {CH2CO}-A[NMeA]NPHL[Sar]WSW[NMeNle][NMeNle]RCG-NH2 (thioether N-14; SMILES CCCC[C@H]1C(=O)N(C)[C@@H](CCCC)C(=O)N[C@@H](CCCNC(=N)N)C(=O)N[C@H](C(=O)NCC(N)=O)CSCC(=O)N[C@@H](C)C(=O)N(C)[C@@H](C)C(=O)N[C@@H](CC(N)=O)C(=O)N2CCC[C@H]2C(=O)N[C@@H](Cc2c[nH]cn2)C(=O)N[C@@H](CC(C)C)C(=O)N(C)CC(=O)N[C@@H](Cc2c[nH]c3ccccc23)C(=O)N[C@@H](CO)C(=O)N[C@@H](Cc2c[nH]c3ccccc23)C(=O)N1C) [Compound No. 5]
Solution: 6500

Problem: Param item: {CH2CO}-F[NMeA]NPHL[Sar]WSW[NMeNle][NMeNle]ACG-NH2 (thioether N-14; SMILES CCCC[C@H]1C(=O)N(C)[C@@H](CCCC)C(=O)N[C@@H](C)C(=O)N[C@H](C(=O)NCC(N)=O)CSCC(=O)N[C@@H](Cc2ccccc2)C(=O)N(C)[C@@H](C)C(=O)N[C@@H](CC(N)=O)C(=O)N2CCC[C@H]2C(=O)N[C@@H](Cc2c[nH]cn2)C(=O)N[C@@H](CC(C)C)C(=O)N(C)CC(=O)N[C@@H](Cc2c[nH]c3ccccc23)C(=O)N[C@@H](CO)C(=O)N[C@@H](Cc2c[nH]c3ccccc23)C(=O)N1C) [Compound No. 22]
Solution: 3

Problem: Param item: {CH2CO}-F[NMeA]APHL[Sar]WSW[NMeNle][NMeNle]RCG-NH2 (thioether N-14; SMILES CCCC[C@H]1C(=O)N(C)[C@@H](CCCC)C(=O)N[C@@H](CCCNC(=N)N)C(=O)N[C@H](C(=O)NCC(N)=O)CSCC(=O)N[C@@H](Cc2ccccc2)C(=O)N(C)[C@@H](C)C(=O)N[C@@H](C)C(=O)N2CCC[C@H]2C(=O)N[C@@H](Cc2c[nH]cn2)C(=O)N[C@@H](CC(C)C)C(=O)N(C)CC(=O)N[C@@H](Cc2c[nH]c3ccccc23)C(=O)N[C@@H](CO)C(=O)N[C@@H](Cc2c[nH]c3ccccc23)C(=O)N1C) [Compound No. 8]
Solution: 31

Problem: Param item: {CH2CO}-F[NMeA]NPHL[NMeA]WSW[NMeNle][NMeNle]RCG-NH2 (thioether N-14; SMILES CCCC[C@H]1C(=O)N(C)[C@@H](CCCC)C(=O)N[C@@H](CCCNC(=N)N)C(=O)N[C@H](C(=O)NCC(N)=O)CSCC(=O)N[C@@H](Cc2ccccc2)C(=O)N(C)[C@@H](C)C(=O)N[C@@H](CC(N)=O)C(=O)N2CCC[C@H]2C(=O)N[C@@H](Cc2c[nH]cn2)C(=O)N[C@@H](CC(C)C)C(=O)N(C)[C@@H](C)C(=O)N[C@@H](Cc2c[nH]c3ccccc23)C(=O)N[C@@H](CO)C(=O)N[C@@H](Cc2c[nH]c3ccccc23)C(=O)N1C) [Compound No. 13]
Solution: 16

Problem: Param item: {CH2CO}-F[NMeA]NPHL[Sar]WSA[NMeNle][NMeNle]RCG-NH2 (thioether N-14; SMILES CCCC[C@H]1C(=O)N(C)[C@@H](CCCC)C(=O)N[C@@H](CCCNC(=N)N)C(=O)N[C@H](C(=O)NCC(N)=O)CSCC(=O)N[C@@H](Cc2ccccc2)C(=O)N(C)[C@@H](C)C(=O)N[C@@H](CC(N)=O)C(=O)N2CCC[C@H]2C(=O)N[C@@H](Cc2c[nH]cn2)C(=O)N[C@@H](CC(C)C)C(=O)N(C)CC(=O)N[C@@H](Cc2c[nH]c3ccccc23)C(=O)N[C@@H](CO)C(=O)N[C@@H](C)C(=O)N1C) [Compound No. 17]
Solution: 7540

Problem: Param item: {CH2CO}-[Phe(4-CF3)][NMeA]NPHL[Sar]WSW[NMeNle][NMeNle]RCG-NH2 (thioether N-14; SMILES CCCC[C@H]1C(=O)N(C)[C@@H](CCCC)C(=O)N[C@@H](CCCNC(=N)N)C(=O)N[C@H](C(=O)NCC(N)=O)CSCC(=O)N[C@@H](Cc2ccc(C(F)(F)F)cc2)C(=O)N(C)[C@@H](C)C(=O)N[C@@H](CC(N)=O)C(=O)N2CCC[C@H]2C(=O)N[C@@H](Cc2c[nH]cn2)C(=O)N[C@@H](CC(C)C)C(=O)N(C)CC(=O)N[C@@H](Cc2c[nH]c3ccccc23)C(=O)N[C@@H](CO)C(=O)N[C@@H](Cc2c[nH]c3ccccc23)C(=O)N1C) [Compound No. 35]
Solution: 56
